# credit: patent US20170000749A1

# Test system: HDAC activity in primary mouse cortical cultures
# measurement.notes: Whole-Cell Histone Deacetylase (HDAC) Inhibition Assay in Primary Mouse Cortical Cultures
# Format: cell-based
# setup.conditions: whole-cell (WC), mouse cortical neurons; Table 10; read-out: HDAC Inhibition (IC50 μM) WC mouse cortical neurons
Consider the following compounds; for each one, report its IC50.

So what does the record say about IC50 for `O=C(CCCON=C1c2ccccc2CCc2ccccc21)NO` ?
5 to 15 µM

Another compound to check: `O=C(NO)c1ccc(OCCN2C(=O)c3ccccc3Oc3ccccc32)c(F)c1`
< 1 µM

Another compound to check: `O=C(CCCCCN1C(=O)c2cccnc2N(C2CC2)c2ccccc21)NO`
1 to 5 µM

Another compound to check: `O=C(NO)c1cccc(OCCN2C(=O)c3ccccc3Oc3ccccc32)c1`
> 15 µM

Another compound to check: `O=C(CCc1ccc(CN2C(=O)c3ccccc3Oc3ccccc32)cc1)NO`
1 to 5 µM

Another compound to check: `O=C(CCCCCCN1C(=O)c2ccccc2N(C2CC2)c2ccccc21)NO`
1 to 5 µM

Another compound to check: `O=C(NO)c1ccc(OCCN2C(=O)CCOc3ccccc32)cc1`
< 1 µM

Another compound to check: `O=C(CCCCCCC(=O)N1Cc2ccccc2Oc2ccccc21)NO`
1 to 5 µM

Another compound to check: `O=C(/C=C/c1ccc(CNC2c3ccccc3CCc3ccccc32)cc1)NO`
5 to 15 µM

Another compound to check: `O=C(/C=C/c1ccc2c(c1)C=Cc1ccccc1N2CC1CC1)NO`
5 to 15 µM

Another compound to check: `O=C(/C=C/c1ccc(CN2C(=O)c3ccccc3Oc3ccccc32)cc1)NO`
1 to 5 µM
